In this section we review reported CRE values for a set of compounds.
# Species: Rattus norvegicus
# ASSAY METHOD TEXT: Open TG-GATES - Regimen: Daily Repeat
# Format: toxicity, organism-based, Sprague-Dawley
# Parameters: regimen Daily Repeat, gender Male, age 6 weeks
# COND: in vivo, po, 0 mg/kg, 72 h, tissue Plasma, route gavage, dose level Control, time 3 day
Respond numerically; units are mg/dL and should not be typed.

- COMPOUND: "O=C(OC[C@H]1O[C@@H](OC(=O)c2cc(O)c(O)c(OC(=O)c3cc(O)c(O)c(O)c3)c2)[C@H](OC(=O)c2cc(O)c(O)c(OC(=O)c3cc(O)c(O)c(O)c3)c2)[C@@H](OC(=O)c2cc(O)c(O)c(OC(=O)c3cc(O)c(O)c(O)c3)c2)[C@@H]1OC(=O)c1cc(O)c(O)c(OC(=O)c2cc(O)c(O)c(O)c2)c1)c1cc(O)c(O)c(OC(=O)c2cc(O)c(O)c(O)c2)c1"
  TEST VALUE: 0.5
- COMPOUND: "CNC(=C[N+](=O)[O-])NCCSCc1ccc(CN(C)C)o1"
  TEST VALUE: 0.4
- COMPOUND: "CN/C(=N/CCSCc1nc[nH]c1C)NC#N"
  TEST VALUE: 0.4
- COMPOUND: "CC(C)NNC(=O)c1ccncc1"
  TEST VALUE: 0.2
- COMPOUND: "COC(=O)C1=C(C)NC(C)=C(C(=O)OC)C1c1ccccc1[N+](=O)[O-]"
  TEST VALUE: 0.2
- COMPOUND: "Cc1nnc2n1-c1ccc(Cl)cc1C(c1ccccc1Cl)=NC2"
  TEST VALUE: 0.2
- COMPOUND: "CN(C)CCC(c1ccc(Cl)cc1)c1ccccn1 (stereo not drawn)"
  TEST VALUE: 0.2

For the next question, use this compound.
Exercise: Given the compound NC1=NC(=O)C(c2ccccc2)O1 (stereo not drawn) , what is its reported CRE?
Solution: 0.2
